pKa reference
# test.summary: pKa value for amino group in the compound
# Type: physicochemical
# conditions: read-out: pKa3
// return just the number, without any unit appended

• CCN1CCCC(NCc2c3ccccc3c(CNC3CCCN(CC)C3)c3ccccc23)C1 (centres undefined) = 5.2
• c1ccc2c(CNCCN3CCOCC3)c3ccccc3c(CNCCN3CCOCC3)c2c1 = 7.5

### Prompt Determine its reported pKa: CN(C)CCNCc1c2ccccc2c(CNCCN(C)C)c2ccccc12
### Response 8.4

### Prompt Entry CN(C)CCN(C)Cc1c2ccccc2c(CN(C)CCN(C)C)c2ccccc12 needs its pKa filled in; supply it.
### Response 8.45
